# experiment-summary: Cycloheximide Counterscreen for Small Molecule Inhibitors of Shiga Toxin; also: read at 38.3 µM for the half of the compounds with a filed dose; 0% is about no effect
# condition-info: cell reporter, cycloheximide protein synthesis inhibition counterscreen; stronger effect = higher value
Hit rate of the full screen: of about 300,000 compounds, about 37,000 (12%) were called active. The list comes from a sample in which actives are over-represented; it also holds close analogues and randomly drawn compounds.
measured-property: max response (%)
Give bare numbers, in %.

compound	value-units	max response
COc1ccc(Br)cc1C1C2C=CCC(C)C2C(=O)N1Cc1ccccc1 (stereo not drawn)	%	2.32
COc1ccccc1/C=C/C(=O)NC(=S)N1CCOCC1	%	47.7
COc1ccc(-n2cnnc2SCC(=O)Nc2cccc(S(N)(=O)=O)c2)cc1	%	-5.17

Each of the following entries comes with a recorded value; kindly state max response for each.
1. CCOC(=O)C1(Cc2cccc(OC)c2)CCN(Cc2csc(C(C)=O)c2)CC1
2. Cc1cc(C)cc(NC(=O)C2CCCN(S(=O)(=O)c3ccc4[nH]c(=O)ccc4c3)C2)c1 (stereo not drawn)
3. Cc1nnc(OCC(=O)NCCC2=CCCCC2)c2ccccc12
4. COc1ccccc1/C=C/C=N/NC(=O)CN1CCN(Cc2ccccc2)CC1

Response given:
1: -2.31; 2: 1.72; 3: -1.88; 4: -1.49

Each of the following entries comes with a recorded value; kindly state max response for each.
1. Oc1ccc(N2CCN(C(=S)NCc3ccccc3)CC2)cc1
2. O=C(NCc1ccco1)/C(=C/c1cccc([N+](=O)[O-])c1)NC(=O)c1ccco1
3. CCN(CC)CCCNC(=O)c1cc2c(=O)[nH]c3ccc(C)cc3c2s1
4. CN(Cc1ccccc1)C(=O)c1ccc(COc2ccccc2)cc1
5. CC1CCCCN1C(=S)NCc1ccccc1 (stereo not drawn)
6. CCOc1ccccc1NS(=O)(=O)c1c[nH]c(C(=O)OC)c1
7. CCOc1ccccc1N1CN(Cc2ccccc2)CNC1=S

Response given:
-5.44
1.87
0.225
7.81
0.333
-0.295
-1.15

Each of the following entries comes with a recorded value; kindly state max response for each.
1. CC(C)c1nnc(NC(=O)C2CC(=O)N(CCc3ccc(F)cc3)C2)s1 (stereo not drawn)
2. O=C(Nc1ccc(N2CCCC2=O)cc1)c1cncc(Br)c1
3. Cc1cnc(NC(=O)CSc2nnc(-c3ccccc3)n2Cc2ccccc2)s1
4. Cc1ccc(S(=O)(=O)NCCSC(C)(C)C)cc1
5. Cc1ccc(S(=O)(=O)c2ccc(Oc3ccccc3)cc2)cc1
6. CC1CCN(C(=O)c2ccc3c(c2)NC(=O)CN3)CC1
7. Cc1c(CN2CCC(n3nccc3NC(=O)CCc3ccccc3)CC2)cnn1C

Response given:
1: -6.02; 2: 1.75; 3: -3.18; 4: 1.94; 5: -0.97; 6: -6.43; 7: 0.463

Each of the following entries comes with a recorded value; kindly state max response for each.
1. Cc1cnc(NC(=O)CSc2nnc(C)s2)s1
2. S=C(NCCc1ccccc1)NCC1CCCO1 (stereo not drawn)

Response given:
20.1
29.4

###

# experiment-summary: Cycloheximide Counterscreen for Small Molecule Inhibitors of Shiga Toxin; also: read at 38.3 µM for the half of the compounds with a filed dose; 0% is about no effect
# condition-info: cell reporter, cycloheximide protein synthesis inhibition counterscreen
Among all 300,000 compounds or so, about 37,000 (12%) were called active. No stated cut-off is given here; in the data, active means max response mostly above about 13% (no sharp cut-off); inactive means mostly below about 14%. Many of the other results were omitted from the sample, so actives are more common in it than they were.
I would appreciate it if you answered using one of these outcomes: 1.0 for active, 0.0 for inactive

compound	label-value
CSc1cccc(NC(=O)C2CCCN2S(=O)(=O)c2ccc3c(c2)CCC(=O)N3)c1 (stereo unspecified)	1.0
Cc1cc(C)nc(NC(=O)/C=C/c2ccc(Cl)cc2)n1	1.0
COC(=O)c1c(NC(=O)C2CC(C)=C(C)CC2C(=O)O)sc2c1CCCCC2 (stereo unspecified)	0.0
Cc1ccc(NC(=S)NC(=O)/C=C/c2ccc(Cl)cc2)cc1	0.0
O=C1CCc2cc(S(=O)(=O)N3CCC(C(=O)NCc4ccccc4Cl)CC3)ccc2N1	0.0

Challenge: Record lookup: outcome of this test for `CC(C)(C)c1ccc(/C=C/C(=O)Nc2ncccn2)cc1` ?
Response given: 1.0

Challenge: Record lookup: outcome of this test for `O=C(Nc1ccccc1N1CCOCC1)c1ccc(OCc2cscn2)cc1` ?
Response given: 0.0
